The values you see were collected from patent US20240270821A1.

# target.or.system: human glucagon receptor (human) (UniProt P47871)
# Sequence (P47871 26-477): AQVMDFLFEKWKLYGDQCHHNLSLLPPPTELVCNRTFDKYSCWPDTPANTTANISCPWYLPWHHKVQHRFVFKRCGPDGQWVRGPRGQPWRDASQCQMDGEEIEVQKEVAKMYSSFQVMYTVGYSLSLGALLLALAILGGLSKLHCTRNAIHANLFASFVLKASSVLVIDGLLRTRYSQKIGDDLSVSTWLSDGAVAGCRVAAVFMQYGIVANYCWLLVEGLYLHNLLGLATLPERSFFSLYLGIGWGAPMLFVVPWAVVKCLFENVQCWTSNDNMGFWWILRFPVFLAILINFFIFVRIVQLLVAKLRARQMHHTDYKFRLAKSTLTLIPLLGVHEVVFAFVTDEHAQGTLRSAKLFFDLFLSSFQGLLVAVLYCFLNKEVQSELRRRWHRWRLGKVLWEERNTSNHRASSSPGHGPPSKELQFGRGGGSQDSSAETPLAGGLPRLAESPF
# assay: cell-based or functional assay
Starred links: 1 amine or outer side, 2 acyl side, 3 side chain; linkers in the order of their positions; H or OH if unused. Non-standard residues stand in square brackets, D forms with d. Groups on a side chain read outwards from the residue. No end group written: not given here. *: point of attachment. C20 diacid = O=C(O)CCCCCCCCCCCCCCCCCCC(=O)*; C18 diacid = O=C(O)CCCCCCCCCCCCCCCCC(=O)*; αMePhe(2-F) = C[C@](N)(Cc1ccccc1F)C(=O)O; γGlu = O=C(O)[C@H](CCC(=O)[*:2])N[*:1]; αMeL = CC(C)C[C@](C)(N)C(=O)O; Dap = NC[C@H](N)C(=O)O; AEEA = NCCOCCOCC(=O)O; Aib = CC(C)(N)C(=O)O
Tick true (1) if Relative cAMP EC50 is 4 nM or greater. Tick false (0) if Relative cAMP EC50 is less than 4 nM.

>>> category_label("YXQGTFTSDFSQXLDKKAQXAFIEYLLEXGESSGEPPPSGS (synthetic construct; SITE 2: note = 2-Aminoisobutyric Acid; SITE 13: note = alpha-methyl-leucine; SITE 17: note = Lysine is chemically modified through conjugation of the epsilon-amino group of the Lysine side chain with (2-[2-(2-Amino-ethoxy)-ethoxy]-acetyl)-(gamma-Glu)-CO-(CH2) 16-CO2H; SITE 20: n) [Example 788]")
"false (0)"
>>> category_label("YXQGTFTSDXSQXLDKKAQXAFIEYLIAGGPSSGEPPPSGSGE (synthetic construct; SITE 2: note = 2-Aminoisobutyric Acid; SITE 10: note = 3-(4-Pyridyl)-L-alanine; SITE 13: note = alpha-methyl-leucine; SITE 17: note = Lysine is chemically modified through conjugation of the epsilon-amino group of the Lysine side chain with (gamma-Glu)2-CO-(CH2)16-CO2H; SITE 20:) [Example 971]")
"true (1)"
>>> category_label("YXQGTFTSDFSKXLDKKAQXAFIEYLIEGGPSSGAPPPSEG (not fully specified; acylated side chain; synthetic construct; SITE 2: note = 2-Aminoisobutyric Acid; SITE 13: note = alpha-methyl-leucine; SITE 17: note = Lysine is chemically modified through conjugation of the epsilon-amino group of the Lysine side chain with (2-[2-(2-Amino-ethoxy)-ethoxy]-acetyl)-(gamma-Glu)-CO-gamma -gamma-(CH2)16-CO2H) [Example 49]")
"true (1)"
>>> category_label("YXQGTFTSDXSXXLDKKAQXAFIEXLLEGGPSSGAPPPSGS (synthetic construct; SITE 2: note = 2-Aminoisobutyric Acid; SITE 10: note = 3-(4-Pyridyl)-L-alanine; SITE 12: note = L-ornithine; SITE 13: note = alpha-methyl-leucine; SITE 17: note = Lysine is chemically modified through conjugation of the epsilon-amino group of the Lysine side chain with (gamma-Gl)) [Example 942]")
"true (1)"
>>> category_label("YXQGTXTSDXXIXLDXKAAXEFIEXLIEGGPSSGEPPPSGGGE (synthetic construct; SITE 2: note = 2-Aminoisobutyric Acid; SITE 6: note = alpha-methyl-2-fluoro-L-phenylalanine; SITE 10: note = 3-(4-Pyridyl)-L-alanine; SITE 11: note = alpha-methyl-L-serine; SITE 13: note = alpha-methyl-leucine; SITE 16: note = L-ornithine; SITE 17: note = Lysine is chemically mo) [Example 746]")
"false (0)"
>>> category_label("YXQGTXTSDXXIXLDXKAQXEFIEXLVEGGPSSGAPPPGGE (not fully specified; non-natural residues; AEEA-γGlu-C18 diacid acyl; C-terminal amide; synthetic construct; SITE 2: note = 2-Aminoisobutyric Acid; SITE 6: note = alpha-methyl-2-fluoro-L-phenylalanine …; SITE 10: note = 3-(4-Pyridyl)-L-alanine; SITE 11: note = alpha-methyl-L-serine; SITE 13: note = alpha-methyl-leucine; SITE 16: note = L-ornithine; SITE 17: note = Lysine is chemically mo) [Example 1154]")
"true (1)"
>>> category_label("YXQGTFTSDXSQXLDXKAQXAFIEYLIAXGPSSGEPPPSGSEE (non-natural residues, C-terminal amide, acylated Lys with fatty diacid; synthetic construct; SITE 2: note = 2-Aminoisobutyric Acid; SITE 10: note = 3-(4-Pyridyl)-L-alanine; SITE 13: note = alpha-methyl-leucine; SITE 16: note = L-ornithine; SITE 17: note = Lysine is chemically modified through conjugation of the epsilon-amino group of the Lysine side chain with (2-[2-(2-) [Example 1095]")
"false (0)"
>>> category_label("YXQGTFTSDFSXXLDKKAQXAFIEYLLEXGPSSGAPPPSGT (synthetic construct; SITE 2: note = 2-Aminoisobutyric Acid; SITE 12: note = L-ornithine; SITE 13: note = alpha-methyl-leucine; SITE 17: note = Lysine is chemically modified through conjugation of the epsilon-amino group of the Lysine side chain with (2-[2-(2-Amino-ethoxy)-ethoxy]-acetyl)-(gamma-Glu)) [Example 278]")
"true (1)"
>>> category_label("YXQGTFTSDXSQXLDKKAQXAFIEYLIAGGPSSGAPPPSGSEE (synthetic construct; SITE 2: note = 2-Aminoisobutyric Acid; SITE 10: note = 3-(4-Pyridyl)-L-alanine; SITE 13: note = alpha-methyl-leucine; SITE 17: note = Lysine is chemically modified through conjugation of the epsilon-amino group of the Lysine side chain with (gamma-Glu)2-CO-(CH2)16-CO2H; SITE 20:) [Example 960]")
"true (1)"
>>> category_label("YXQGTFTSDXSQXLDXKAQXAFIEYLIAGGPSSGEPPPSGS (not fully specified; synthetic construct; SITE 2: note = 2-Aminoisobutyric Acid; SITE 10: note = 3-(4-Pyridyl)-L-alanine; SITE 13: note = alpha-methyl-leucine; SITE 16: note = L-ornithine; SITE 17: note = Lysine is chemically modified through conjugation of the epsilon-amino group of the Lysine side chain with (gamma-Gl)) [Example 1007]")
"true (1)"
>>> category_label("YXQGTFTSDFSXXLDKKAQXAFIEWLLAGGPSSGEPPPSGE (synthetic construct; SITE 2: note = 2-Aminoisobutyric Acid; SITE 12: note = L-ornithine; SITE 13: note = alpha-methyl-leucine; SITE 17: note = Lysine is chemically modified through conjugation of the epsilon-amino group of the Lysine side chain with (2-[2-(2-Amino-ethoxy)-ethoxy]-acetyl)-(gamma-Glu)) [Example 103]")
"true (1)"
>>> category_label("YXQGTXTSDXXILLDXKAQXXFIEYLIEGGPSSGEPPPSGTE (synthetic construct; SITE 2: note = 2-Aminoisobutyric Acid; SITE 6: note = alpha-methyl-2-fluoro-L-phenylalanine; SITE 10: note = 3-(4-Pyridyl)-L-alanine; SITE 11: note = alpha-methyl-L-serine; SITE 16: note = L-ornithine; SITE 17: note = Lysine is chemically modified through conjugation of the epsi) [Example 531]")
"false (0)"
>>> category_label("HXQGTXTSDYSILLDKKAAXAFIEYLIEAGPSSGEPPPSEG (not fully specified; synthetic construct; SITE 2: note = 2-Aminoisobutyric Acid; SITE 6: note = alpha-methyl-2-fluoro-L-phenylalanine; SITE 17: note = Lysine is chemically modified through conjugation of the epsilon-amino group of the Lysine side chain with (2-[2-(2-Amino-ethoxy)-ethoxy]-acetyl)-(gamma-Glu)-CO-(CH2) 18-) [Example 298]")
"false (0)"
>>> category_label("YXQGTFTSDXSQXLDKKAQXAFIEXLIEXGPSSGAPPPSGTE (Lys acylated with (γGlu)2-C18 diacid; non-natural residues; C-amide; synthetic construct; SITE 2: note = 2-Aminoisobutyric Acid; SITE 10: note = 3-(4-Pyridyl)-L-alanine; SITE 13: note = alpha-methyl-leucine; SITE 17: note = Lysine is chemically modified through conjugation of the epsilon-amino group of the Lysine side chain with (gamma-Glu)2-CO-(CH2)16-CO2H; SITE 20:) [Example 1118]")
"true (1)"
>>> category_label("YXQGTFTSDXSQXLDKKAQXAFIEYLIEXGPSSGAPPPSGTGE (Aib, 4Pal, Me4Pal, alpha-methyl-Leu, lipidated Lys, C-terminal amide; synthetic construct; SITE 2: note = 2-Aminoisobutyric Acid; SITE 10: note = 3-(4-Pyridyl)-L-alanine; SITE 13: note = alpha-methyl-leucine; SITE 17: note = Lysine is chemically modified through conjugation of the epsilon-amino group of the Lysine side chain with (gamma-Glu)2-CO-(CH2)16-CO2H; SITE 20:) [Example 1127]")
"true (1)"
>>> category_label("YXQGTFTSDFSXXLDKKAQXAFIEWLLEGGHSSGAPPPGGE (synthetic construct; SITE 2: note = 2-Aminoisobutyric Acid; SITE 12: note = L-ornithine; SITE 13: note = alpha-methyl-leucine; SITE 17: note = Lysine is chemically modified through conjugation of the epsilon-amino group of the Lysine side chain with (2-[2-(2-Amino-ethoxy)-ethoxy]-acetyl)-(gamma-Glu)) [Example 273]")
"true (1)"
>>> category_label("YXQGTFTSDFSKXLDKKAQXAFIEYLLAGGPSSGAPPPSSG (Aib, αMeL, acylated K, C-terminal amide; synthetic construct; SITE 2: note = 2-Aminoisobutyric Acid; SITE 13: note = alpha-methyl-leucine; SITE 17: note = Lysine is chemically modified through conjugation of the epsilon-amino group of the Lysine side chain with (2-[2-(2-Amino-ethoxy)-ethoxy]-acetyl)-(gamma-Glu)-CO-(CH2) 18-CO2H; SITE 20: n) [Example 13]")
"true (1)"
>>> category_label("Y[Aib]QGTFTSDFS[Dap][αMeL]LDKK([AEEA-γGlu-C18 diacid])AQ[Aib]AFIEYLLE[Aib]GPSSGAPPPSGS-NH2 [Example 134]")
"true (1)"
>>> category_label("YXQGTXTSDXXIXLDXKAQXEFIEXLVEGGPSSGAPPPSGSE (non-natural residues; Lys acylated C18 diacid via γGlu2; C-term amide; synthetic construct; SITE 2: note = 2-Aminoisobutyric Acid; SITE 6: note = alpha-methyl-2-fluoro-L-phenylalanine; SITE 10: note = 3-(4-Pyridyl)-L-alanine; SITE 11: note = alpha-methyl-L-serine; SITE 13: note = alpha-methyl-leucine; SITE 16: note = L-ornithine; SITE 17: note = Lysine is chemically mo) [Example 1162]")
"false (0)"
>>> category_label("YXQGTXTSDXSIXLDXKAQXEFIEXLLEGGPSSGAPPPSGS (Lys acylated AEEA-γGlu-C18 diacid; non-natural residues; C-terminal amide; synthetic construct; SITE 2: note = 2-Aminoisobutyric Acid; SITE 6: note = alpha-methyl-2-fluoro-L-phenylalanine; SITE 10: note = 3-(4-Pyridyl)-L-alanine; SITE 13: note = alpha-methyl-leucine; SITE 16: note = L-ornithine; SITE 17: note = Lysine is chemically modified through conjugation of the epsil) [Example 641]")
"false (0)"
>>> category_label("Y[Aib]QGT[αMePhe(2-F)]TSDYSKLLDKIAQK([AEEA-γGlu-C20 diacid])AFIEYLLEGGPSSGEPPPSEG-NH2 [Example 295]")
"false (0)"
>>> category_label("YXQGTFTSDXSQXLDXKAQXAFIEYLIAGGPSSGEPPPSGSGE (synthetic construct; SITE 2: note = 2-Aminoisobutyric Acid; SITE 10: note = 3-(4-Pyridyl)-L-alanine; SITE 13: note = alpha-methyl-leucine; SITE 16: note = L-ornithine; SITE 17: note = Lysine is chemically modified through conjugation of the epsilon-amino group of the Lysine side chain with (gamma-Gl)) [Example 978]")
"true (1)"
>>> category_label("YXQGTFTSDFSQXLDKKAQXAFIEYLLAGGPSSGEPPPSGS (synthetic construct; SITE 2: note = 2-Aminoisobutyric Acid; SITE 13: note = alpha-methyl-leucine; SITE 17: note = Lysine is chemically modified through conjugation of the epsilon-amino group of the Lysine side chain with (2-[2-(2-Amino-ethoxy)-ethoxy]-acetyl)-(gamma-Glu)-CO-(CH2) 16-CO2H; SITE 20: n) [Example 773]")
"true (1)"
